# experimental target: His-hMAGL (recombinant polyhistidine tagged human MAGL protein) (Homo sapiens, UniProt Q99685)
# Construct: polyhistidine (His) (N); made in house; host or cells: E. coli BL21(DE3)
# assay summary: Measurement of MAGL inhibitory activity (RapidFire-mass spectrometry of arachidonic acid produced from 2-arachidonylglycerol)
# Assay type: biochemical
# cond: test compound 10 μM; His-hMAGL; substrate 2-arachidonylglycerol; 60 min preincubation; 10 µM
Overview of recorded % inhibition (10 μM) for various compounds
Answer shape: numeric part, then the unit.

- CC(Oc1c(F)ccc(F)c1F)C1CCN(C(=O)[C@H]2C[C@]3(COC(=O)N3)C2)CC1 (some centres unmarked) [Example 56]: 100%

Request: What does the data say about its % inhibition (10 μM)? Entry: CC(Oc1ccc(F)cc1F)C1CCN(C(=O)[C@H]2C[C@]3(COC(=O)N3)C2)CC1 (some centres unmarked) [Example 22]
Result: 101%

Request: Query: % inhibition (10 μM); subject: CC1(C2CCN(C(=O)[C@H]3C[C@]4(COC(=O)N4)C3)CC2)Cc2ccc(C(F)(F)F)cc2O1 (some centres unmarked) [Example 71]
Result: 101%

Request: What does the record list as % inhibition (10 μM) for CC(Oc1c(F)ccc(F)c1F)C1CCN(C(=O)[C@H]2C[C@]3(COC(=O)N3)C2)CC1 (some centres unmarked) [Example 57] ?
Result: 100%

Request: Report % inhibition (10 μM) for CC(Oc1ccc(F)c(F)c1F)C1CCN(C(=O)[C@H]2C[C@]3(COC(=O)N3)C2)CC1 (some centres unmarked) [Example 82] please.
Result: 100%

----------
# inhibition at 10 µM annotations
# experimental target: His-hMAGL (recombinant polyhistidine tagged human MAGL protein) (Homo sapiens, UniProt Q99685)
# Construct: polyhistidine (His) (N); made in house; host or cells: E. coli BL21(DE3)
# assay summary: Measurement of MAGL inhibitory activity (RapidFire-mass spectrometry of arachidonic acid produced from 2-arachidonylglycerol)
# Assay type: biochemical
# cond: test compound 10 μM; His-hMAGL; substrate 2-arachidonylglycerol; 60 min preincubation; read-out: % inhibition (10 μM)
Write the numeric value and append its unit.

Worked examples follow.
- CC1(C2CCN(C(=O)[C@H]3C[C@]4(COC(=O)N4)C3)CC2)Cc2cc(C(F)(F)F)ccc2O1 (stereo partly shown): 101%
- CC(Oc1ccc(Cl)cc1F)C1CCN(C(=O)[C@H]2C[C@]3(CCC(=O)N3)C2)CC1 (stereo partly shown): 100%
- CC(Oc1ccc(F)c(F)c1F)C1CCN(C(=O)[C@H]2C[C@]3(COC(=O)N3)C2)CC1 (stereo partly shown): 101%
- Cc1ccc(OCC2CCN(C(=O)[C@H]3C[C@]4(COC(=O)N4)C3)CC2)c(F)c1: 100%
- O=C1N[C@]2(CO1)C[C@H](C(=O)N1CC(CC(F)(F)c3ccc(C(F)(F)F)cc3F)C1)C2: 100%

Request: Quick one: inhibition at 10 µM of Cc1cc(COCC2CN(C(=O)[C@H]3C[C@]4(COC(=O)N4)C3)C2)ccc1Cl ?
Result: 101%

Request: Find the recorded inhibition at 10 µM belonging to O=C1N[C@]2(CO1)C[C@H](C(=O)N1CCC(OCc3ccc(Cl)cc3Cl)CC1)C2 and report it.
Result: 100%

----------
# experimental target: His-hMAGL (recombinant polyhistidine tagged human MAGL protein) (Homo sapiens)
# Construct: polyhistidine (His) (N); made in house; host or cells: E. coli BL21(DE3)
# Sequence (Q99685 1-303): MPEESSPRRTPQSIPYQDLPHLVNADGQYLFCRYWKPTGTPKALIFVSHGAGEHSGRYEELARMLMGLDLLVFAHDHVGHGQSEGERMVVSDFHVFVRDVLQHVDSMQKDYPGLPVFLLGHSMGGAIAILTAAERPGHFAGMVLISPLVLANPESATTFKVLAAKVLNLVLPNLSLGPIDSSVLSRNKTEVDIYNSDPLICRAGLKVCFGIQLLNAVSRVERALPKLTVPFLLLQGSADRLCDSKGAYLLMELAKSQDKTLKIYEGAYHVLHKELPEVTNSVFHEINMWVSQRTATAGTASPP
# assay summary: Measurement of MAGL inhibitory activity (RapidFire-mass spectrometry of arachidonic acid produced from 2-arachidonylglycerol)
# Format: biochemical
# cond: test compound 10 μM; His-hMAGL; substrate 2-arachidonylglycerol; 60 min preincubation; read-out: % inhibition (10 μM)
Measured inhibition at 10 µM accompanies every entry in the list below.
Write the value in % as a bare number.

• CC(Oc1ccc(F)cc1C(F)(F)F)C1CCN(C(=O)[C@H]2C[C@]3(CCC(=O)N3)C2)CC1 (stereo partly drawn) = 100
• CC1(C2CCN(C(=O)[C@H]3C[C@]4(COC(=O)N4)C3)CC2)Cc2cc(F)cc(F)c2O1 (stereo partly drawn) = 100
• CC(c1ccccc1)(c1ccccc1)C1CCN(C(=O)[C@H]2C[C@]3(COC(=O)N3)C2)CC1 = 101

Request: Consider the compound O=C1N[C@]2(CO1)C[C@H](C(=O)N1CC(CC(F)(F)c3ccc(C(F)(F)F)c(Cl)c3)C1)C2 and give its measured inhibition at 10 µM.
Result: 100

----------
# experimental target: His-hMAGL (recombinant polyhistidine tagged human MAGL protein) (Homo sapiens, UniProt Q99685)
# Construct: polyhistidine (His) (N); made in house; host or cells: E. coli BL21(DE3)
# assay summary: Measurement of MAGL inhibitory activity (RapidFire-mass spectrometry of arachidonic acid produced from 2-arachidonylglycerol)
# Format: biochemical
# cond: test compound 10 μM; His-hMAGL; substrate 2-arachidonylglycerol; 60 min preincubation; read-out: % inhibition (10 μM)
value kind: inhibition at 10 µM

* Cc1ccc(COC2CN(C(=O)[C@H]3C[C@@]4(COC(=O)N4)C3)C2)cc1Cl | 99%
* CC(Oc1ccc(F)c(F)c1F)C1CCN(C(=O)[C@H]2C[C@]3(CCC(=O)N3)C2)CC1 (stereo partly shown) | 101%
* O=C1COC[C@]2(C[C@H](C(=O)N3CCC(COc4ccc(F)cc4Cl)CC3)C2)N1 | 100%
* CCc1cc(OCC2CN(C(=O)[C@H]3C[C@]4(COC(=O)N4)C3)C2)c(F)cc1C(F)(F)F | 100%
* O=C1N[C@]2(CO1)C[C@H](C(=O)N1CC(COc3ccc(C(F)(F)F)cc3Cl)C1)C2 | 100%

Request: What inhibition at 10 µM value was documented for this molecule, O=C1N[C@]2(CO1)C[C@H](C(=O)N1CC(COc3cc(Br)c(C(F)(F)F)cc3F)C1)C2 ?
Result: 101%

Request: Requested field: inhibition at 10 µM. Item: N#Cc1cc(C(F)(F)F)ccc1OCC1CCN(C(=O)[C@H]2C[C@]3(COC(=O)N3)C2)CC1
Result: 100%

Request: Request the reported inhibition at 10 µM associated with O=C1N[C@]2(CO1)C[C@H](C(=O)N1CCC(C(F)(F)c3ccc(F)cc3Cl)CC1)C2
Result: 100%

Request: Which measured inhibition at 10 µM value corresponds to CC(Oc1ccc(C2CC2)cc1F)C1CCN(C(=O)[C@H]2C[C@]3(COC(=O)N3)C2)CC1 (stereo partly shown) ?
Result: 100%

----------
# experimental target: His-hMAGL (recombinant polyhistidine tagged human MAGL protein) (Homo sapiens, UniProt Q99685)
# Construct: polyhistidine (His) (N); made in house; host or cells: E. coli BL21(DE3)
# assay summary: Measurement of MAGL inhibitory activity (RapidFire-mass spectrometry of arachidonic acid produced from 2-arachidonylglycerol)
# Format: biochemical
# cond: test compound 10 μM; His-hMAGL; substrate 2-arachidonylglycerol; 60 min preincubation; 10 µM
value kind: % inhibition (10 μM)
Note: a bare number is incomplete; add the unit.

- CC(Oc1cc(F)c(F)cc1F)C1CCN(C(=O)[C@H]2C[C@]3(COC(=O)N3)C2)CC1 (stereo partly drawn) [Example 55]: 100%
- CC(Oc1ccc(F)cc1F)C1CCN(C(=O)[C@H]2C[C@]3(COC(=O)N3)C2)CC1 (stereo partly drawn) [Example 21]: 100%

// moving on: another record for % inhibition (10 μM)
Request: Can you share its % inhibition (10 μM)? I mean this compound: CC(Oc1cc(F)c(F)cc1F)C1CCN(C(=O)[C@H]2C[C@]3(COC(=O)N3)C2)CC1 (stereo partly drawn) [Example 54]
Result: 101%

----------
inhibition at 10 µM values for the compounds below.
# experimental target: His-hMAGL (recombinant polyhistidine tagged human MAGL protein) (Homo sapiens)
# Construct: polyhistidine (His) (N); made in house; host or cells: E. coli BL21(DE3)
# assay summary: Measurement of MAGL inhibitory activity (RapidFire-mass spectrometry of arachidonic acid produced from 2-arachidonylglycerol)
# Assay type: biochemical
# cond: test compound 10 μM; His-hMAGL; substrate 2-arachidonylglycerol; 60 min preincubation; read-out: % inhibition (10 μM)
Note: unit % is implicit; provide only the numeric part.

Answered examples (5):
• Cc1ccc(COC2CN(C(=O)[C@H]3C[C@]4(COC(=O)N4)C3)C2)c(F)c1F = 100
• O=C1N[C@]2(CO1)C[C@H](C(=O)N1CC(CC(F)(F)c3ccc(C(F)(F)F)c(F)c3)C1)C2 = 100
• O=C1N[C@]2(CO1)C[C@H](C(=O)N1CCC(COc3ccc(C(F)(F)F)cc3Cl)CC1)C2 = 101
• O=C1N[C@]2(CO1)C[C@H](C(=O)N1CC(COc3cc(C(F)(F)F)cc(C(F)(F)F)c3)C1)C2 = 100
• CC(Oc1ccc(Cl)cc1F)C1CCN(C(=O)[C@H]2C[C@]3(COC(=O)N3)C2)CC1 (stereo partly drawn) = 101

Request: Any idea what its inhibition at 10 µM is? The compound is CC(Oc1c(F)cc(F)cc1F)C1CCN(C(=O)[C@H]2C[C@]3(COC(=O)N3)C2)CC1 (stereo partly drawn)
Result: 100

Request: Quick check: inhibition at 10 µM of CC(Oc1cc(F)c(F)cc1F)C1CCN(C(=O)[C@H]2C[C@]3(COC(=O)N3)C2)CC1 (stereo partly drawn) ?
Result: 101

Request: inhibition at 10 µM for O=C1N[C@]2(CO1)C[C@H](C(=O)N1CC(COc3ccc(Cl)cc3Cl)C1)C2 ?
Result: 100

Request: I'd like to know its inhibition at 10 µM. The compound in question is Cc1ccc(COCC2CN(C(=O)[C@H]3C[C@]4(COC(=O)N4)C3)C2)cc1Cl
Result: 100

All figures here come from patent US10323026B2.
